# study-system: Dipeptidyl peptidase 2 (Homo sapiens, UniProt Q9UHL4)
experimental-readout: IC50 (µM)

Look over these answered cases.
Cn1c(C(F)(F)F)nc2c1CCN(C(=O)C[C@H](N)Cc1cc(F)c(F)cc1F)C2Cc1ccc(F)cc1 (stereo in doubt; 72b) :: 15
Cn1c(C(F)(F)F)nc2c1CCN(C(=O)C[C@H](N)Cc1cc(F)c(F)cc1F)C2Cc1ccccc1 (stereo in doubt; 71a) :: 46
CC1c2nc(C(C)(C)C)n(C)c2CCN1C(=O)C[C@H](N)Cc1cc(F)c(F)cc1F (stereo in doubt; 70b) :: 19
CC1c2nc(C3CC3)n(C)c2CCN1C(=O)C[C@H](N)Cc1cc(F)c(F)cc1F (stereo not given in full) :: 30
Cn1c(C(F)(F)F)nc2c1CCN(C(=O)C[C@H](N)Cc1cc(F)c(F)cc1F)C2Cc1ccccc1 (stereo in doubt; 71b) :: 20
N[C@@H](CC(=O)N1CCc2nc(C(F)(F)F)n(Cc3ccc(F)cc3)c2C1)Cc1cc(F)ccc1F :: 56

a = Cn1cnc2c1CCN(C(=O)C[C@H](N)Cc1cc(F)c(F)cc1F)C2C(F)(F)F (stereo in doubt; 67a)
b = CC(C)Cn1c(C(F)(F)F)nc2c1CCN(C(=O)C[C@H](N)Cc1cc(F)ccc1F)C2
Identify the item whose IC50 is the smaller number: a or b To answer, give the label that identifies your chosen option.
b
(b: 49 µM, a: 76 µM)

====

Reported pIC50 by item:
# study-system: UniProt:Q6V1X1
# Sequence (Q6V1X1 whole entry): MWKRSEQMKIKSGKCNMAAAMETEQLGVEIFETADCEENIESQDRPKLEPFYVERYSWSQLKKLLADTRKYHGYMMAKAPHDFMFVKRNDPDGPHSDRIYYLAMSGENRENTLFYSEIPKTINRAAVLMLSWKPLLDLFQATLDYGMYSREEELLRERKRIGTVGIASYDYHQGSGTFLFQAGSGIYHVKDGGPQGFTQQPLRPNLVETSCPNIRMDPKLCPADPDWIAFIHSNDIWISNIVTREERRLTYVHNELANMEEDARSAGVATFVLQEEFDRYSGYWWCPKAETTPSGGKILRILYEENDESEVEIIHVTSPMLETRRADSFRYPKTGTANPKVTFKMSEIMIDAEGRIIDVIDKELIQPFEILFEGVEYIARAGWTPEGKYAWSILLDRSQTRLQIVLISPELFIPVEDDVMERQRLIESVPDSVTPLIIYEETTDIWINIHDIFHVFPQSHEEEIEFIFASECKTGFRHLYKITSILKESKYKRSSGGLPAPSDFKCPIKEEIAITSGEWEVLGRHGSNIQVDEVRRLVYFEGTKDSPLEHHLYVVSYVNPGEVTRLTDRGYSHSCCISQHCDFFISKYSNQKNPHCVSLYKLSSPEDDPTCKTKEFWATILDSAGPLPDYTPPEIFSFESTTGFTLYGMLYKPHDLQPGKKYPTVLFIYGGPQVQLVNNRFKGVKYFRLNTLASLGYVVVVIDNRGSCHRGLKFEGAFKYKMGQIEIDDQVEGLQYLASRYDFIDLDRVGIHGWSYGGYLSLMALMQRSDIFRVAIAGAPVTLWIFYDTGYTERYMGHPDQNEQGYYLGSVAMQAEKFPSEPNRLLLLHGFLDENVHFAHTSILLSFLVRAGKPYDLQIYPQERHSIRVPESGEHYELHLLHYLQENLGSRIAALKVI
pIC50: −log10 of the molar value.

CC(C)Cn1c(C(F)(F)F)nc2c1CN(C(=O)C[C@H](N)Cc1cc(F)ccc1F)CC2 :: < 4.00

Note: attention shifts to another entry.
GET /value?item= `N[C@@H](CC(=O)N1CCc2nc(C(F)(F)F)n(Cc3ccc(F)cc3)c2C1)Cc1cc(F)ccc1F` &field=pIC50 returns < 4.00

====

# experimental-protocol: Plasma clearance in rat at 1 mg/kg, iv and 2 mg/kg, po
# Type: ADME, organism-based
experimental-readout: clearance (mL/min/kg)

CC1c2nc(C(F)(F)F)n(C)c2CCN1C(=O)C[C@H](N)Cc1cc(F)c(F)cc1F (stereo partly drawn) :: 81

A = Cn1cnc2c1CCN(C(=O)C[C@H](N)Cc1cc(F)c(F)cc1F)C2C(F)(F)F (stereo in doubt; 67b)
B = Cn1c(C(F)(F)F)nc2c1CCN(C(=O)C[C@H](N)Cc1cc(F)c(F)cc1F)C2Cc1ccccc1 (stereo in doubt; 71b)
Lab note: check whether A or B shows the higher recorded clearance. To answer, give the label that identifies your chosen option.
A

====

# experimental-protocol: Half life in rat at 1 mg/kg, iv and 2 mg/kg, po
# Type: ADME, organism-based
# measurement-context: in vivo
experimental-readout: half-life (h)

CC1c2nc(C(F)(F)F)n(C)c2CCN1C(=O)C[C@H](N)Cc1cc(F)c(F)cc1F (stereo partly drawn) :: 1.2
Cn1cnc2c1CCN(C(=O)C[C@H](N)Cc1cc(F)c(F)cc1F)C2C(F)(F)F (stereo in doubt; 67b) :: 1.4
Cn1c(C(F)(F)F)nc2c1CCN(C(=O)C[C@H](N)Cc1cc(F)c(F)cc1F)C2Cc1ccccc1 (stereo in doubt; 71b) :: 1.5

====

For Dipeptidyl peptidase 4 (Homo sapiens, UniProt P27487), measured IC50 is reported for the entries below.
experimental-readout: IC50 (nM)

1 = N[C@@H](CC(=O)N1CCc2[nH]c(C(F)(F)F)nc2C1)Cc1cc(F)ccc1F
2 = Cn1c(C(F)(F)F)nc2c1CCN(C(=O)C[C@H](N)Cc1cc(F)c(F)cc1F)C2C1CC1 (stereo in doubt; 68a)
3 = Cn1c(C(F)(F)F)nc2c1CCN(C(=O)C[C@H](N)Cc1cc(F)c(F)cc1F)C2Cc1ccc(F)cc1 (stereo in doubt; 72b)
Falling order of IC50, please. The response must list the labels following the requested ordering.
2, 1, 3
(2: 340 nM, 1: 140 nM, 3: 5.8 nM)

P = CCn1c(C(F)(F)F)nc2c1CCN(C(=O)C[C@H](N)Cc1cc(F)ccc1F)C2
Q = Cn1c(C(F)(F)F)nc2c1CCN(C(=O)C[C@H](N)Cc1cc(F)c(F)cc1F)C2Cc1ccc(F)cc1 (stereo in doubt; 72a)
Lab note: check whether P or Q shows the higher recorded IC50. To answer, give the label that identifies your chosen option.
Q
(Q: 780 nM, P: 180 nM)

====

# experimental-protocol: Cmax in rat at 2 mg/kg, po
# Type: ADME, organism-based
# Parameters: dose 2 mg/kg, route oral
# measurement-context: in vivo
experimental-readout: Cmax (nM)

CC1c2nc(C(F)(F)F)n(C)c2CCN1C(=O)C[C@H](N)Cc1cc(F)c(F)cc1F (stereo partly drawn) :: 98

A = Cn1c(C(F)(F)F)nc2c1CCN(C(=O)C[C@H](N)Cc1cc(F)c(F)cc1F)C2Cc1ccccc1 (stereo in doubt; 71b)
B = Cn1cnc2c1CCN(C(=O)C[C@H](N)Cc1cc(F)c(F)cc1F)C2C(F)(F)F (stereo in doubt; 67b)
Lab note: check whether A or B shows the higher recorded Cmax. To answer, give the label that identifies your chosen option.
A

====

# experimental-protocol: Volume of distribution at steady state in rat at 1 mg/kg, iv and 2 mg/kg, po
# Type: ADME, organism-based
# measurement-context: in vivo, read-out: Vdss
experimental-readout: Vd (L/kg)

Cn1cnc2c1CCN(C(=O)C[C@H](N)Cc1cc(F)c(F)cc1F)C2C(F)(F)F (stereo in doubt; 67b) :: 8.3
CC1c2nc(C(F)(F)F)n(C)c2CCN1C(=O)C[C@H](N)Cc1cc(F)c(F)cc1F (stereo partly drawn) :: 8
Cn1c(C(F)(F)F)nc2c1CCN(C(=O)C[C@H](N)Cc1cc(F)c(F)cc1F)C2Cc1ccccc1 (stereo in doubt; 71b) :: 6.5

====

pIC50: −log10 of the molar value.
For Dipeptidyl peptidase 4 (Homo sapiens, UniProt P27487), measured pIC50 is reported for the entries below.
experimental-readout: pIC50

I = Cn1c(C(F)(F)F)nc2c1CCN(C(=O)C[C@H](N)Cc1cc(F)ccc1F)C2
II = Cn1cnc2c1CCN(C(=O)C[C@H](N)Cc1cc(F)c(F)cc1F)C2C(F)(F)F (stereo in doubt; 67a)
III = Cn1c(C(F)(F)F)nc2c1CCN(C(=O)C[C@H](N)Cc1cc(F)c(F)cc1F)C2Cc1ccccc1 (stereo in doubt; 71b)
Rank the listed molecules, smallest pIC50 first and largest last. The response must list the labels following the requested ordering.
II, I, III

Origin of measurements: ChEMBL document CHEMBL1140494
